Reference source: PubChem BioAssay (NCI)

- Tested on: CAKI-1 renal
- ASSAY METHOD TEXT: NCI-60 one-dose screen, 48 h (100 = growth as untreated, 0 = no growth, -100 = all killed)
- TEST PARAMETERS: 10 µM unless noted
This is part of a sample that, as a whole, favours compounds with a hit. Of some 83,000 tested, about 20% had one in any assay.

>  <MOLECULE>
CSc1nc2ncc([N+](=O)[O-])c(=O)n2[nH]1

>  <ASSAY SYSTEM>
CAKI-1 renal

>  <growth (%)>
92.8

$$$$
>  <MOLECULE>
Nc1c(C(=O)Nc2ccccc2F)sc2nc3c(cc12)CCCC3

>  <ASSAY SYSTEM>
CAKI-1 renal

>  <growth (%)>
57.4

$$$$
>  <MOLECULE>
Cc1nc2sc(C(=O)Nc3cccc(Br)c3)c(N)c2cc1C(O)c1ccccc1 (centres undefined)

>  <ASSAY SYSTEM>
CAKI-1 renal

>  <growth (%)>
46.4

$$$$
>  <MOLECULE>
CCCc1c(OC(=O)c2ccccc2)nc2[nH]c(=O)sc2c1C

>  <ASSAY SYSTEM>
CAKI-1 renal

>  <growth (%)>
95.6

$$$$
>  <MOLECULE>
CCOC(=O)c1c(NC(=O)c2ccc(Cl)cc2)sc2c(CN(C)C)c(O)ccc12

>  <ASSAY SYSTEM>
CAKI-1 renal

>  <growth (%)>
67.2

$$$$
>  <MOLECULE>
COC12C=C/C(=C(/C(=O)OCc3ccncc3)C(=O)CCCCCCCCC3(OC)C=C/C(=C(/C(=O)OCc4ccncc4)C(=O)CCCCCCCC1)O3)O2

>  <ASSAY SYSTEM>
CAKI-1 renal

>  <growth (%)>
-48.6

$$$$
>  <MOLECULE>
CCCCCN1C(=O)/C(=c2\sc3n(c2=O)C2C(NN=3)N(CC)C(=O)N2CC)c2ccccc21 (centres undefined)

>  <ASSAY SYSTEM>
CAKI-1 renal

>  <growth (%)>
7.55

$$$$
>  <MOLECULE>
CCSc1oc(-c2ccccc2)nc1[P+](c1ccccc1)(c1ccccc1)c1ccccc1

>  <ASSAY SYSTEM>
CAKI-1 renal

>  <growth (%)>
1.2

$$$$
>  <MOLECULE>
N#Cc1c(-c2ccc(Cl)cc2)nc(NN2C(=O)c3ccccc3C2=O)nc1N1CCOCC1

>  <ASSAY SYSTEM>
CAKI-1 renal

>  <growth (%)>
90.4

$$$$
>  <MOLECULE>
Cc1[nH]c(C(=O)Nc2ccc(C(=O)N3CCN(c4cc5c(cc4F)c(=O)c(C(=O)O)cn5C4CC4)CC3)cc2OC(C)C)c(Cl)c1Cl

>  <ASSAY SYSTEM>
CAKI-1 renal

>  <growth (%)>
74.8

$$$$
>  <MOLECULE>
CCN(CC)c1ccc(\C=N/N=C(N)/C(N)=N\N=C/c2ccc(N(CC)CC)cc2)cc1

>  <ASSAY SYSTEM>
CAKI-1 renal

>  <growth (%)>
88.9

$$$$
>  <MOLECULE>
Cc1ccc2c(Cn3cc(CSc4nc5ccccc5o4)nn3)cc(=O)oc2c1

>  <ASSAY SYSTEM>
CAKI-1 renal

>  <growth (%)>
100

$$$$
>  <MOLECULE>
O=S(=O)(NCCCNc1nccc(-c2c(-c3ccc(F)c(O)c3)nc3occn23)n1)c1ccc(Cl)cc1

>  <ASSAY SYSTEM>
CAKI-1 renal

>  <growth (%)>
41.7

$$$$
>  <MOLECULE>
COc1cc(-c2cncn2-c2ccc(-c3nc4ccc(F)cc4s3)cc2)ccc1F

>  <ASSAY SYSTEM>
CAKI-1 renal

>  <growth (%)>
25.7

$$$$
>  <MOLECULE>
CCCNC(=O)Nc1ccc2cc3ccc(NC(=O)NCCC)cc3nc2c1

>  <ASSAY SYSTEM>
CAKI-1 renal

>  <growth (%)>
104

$$$$
>  <MOLECULE>
NC(=O)c1c(NC(=O)c2ccc3ccccc3c2)sc2c1CCC(=O)C2

>  <ASSAY SYSTEM>
CAKI-1 renal

>  <growth (%)>
16.3

$$$$
>  <MOLECULE>
CC(C)c1ccc(Cc2cnc(NC(=O)c3cc(Br)cs3)s2)cc1

>  <ASSAY SYSTEM>
CAKI-1 renal

>  <growth (%)>
31.3

$$$$
>  <MOLECULE>
NS(=O)(=O)c1ccc(N=Nc2c(O)n(Cc3ccccc3)c3ccc(Cl)cc23)cc1

>  <ASSAY SYSTEM>
CAKI-1 renal

>  <growth (%)>
64.4

$$$$
>  <MOLECULE>
CC/C(=C(/c1ccc(Cl)cc1)c1ccc(OCCN2CCCCC2)cc1)c1ccc(OC)cc1

>  <ASSAY SYSTEM>
CAKI-1 renal

>  <growth (%)>
72.3

$$$$
